- Tested on: Aβ fibers
- ASSAY_PROCEDURE: Ex vivo single unit recordings, skin-saphenous nerve preparation
- Type: cell-based, mouse
- ASSAY_SETUP: Mus musculus, 10 min, skin superfusion 10 min, 10-100 μM; read-out: IC50, inhibition of mechanically induced firing
QUANTITY_NAME: IC50

Recorded IC50 of CN(C)CCC=C1c2ccccc2CCc2ccccc21 , please.
~26 µM

---

- TARGET_UNDER_TEST: hNav1.7 (Homo sapiens)
- Sequence (Q15858 whole entry): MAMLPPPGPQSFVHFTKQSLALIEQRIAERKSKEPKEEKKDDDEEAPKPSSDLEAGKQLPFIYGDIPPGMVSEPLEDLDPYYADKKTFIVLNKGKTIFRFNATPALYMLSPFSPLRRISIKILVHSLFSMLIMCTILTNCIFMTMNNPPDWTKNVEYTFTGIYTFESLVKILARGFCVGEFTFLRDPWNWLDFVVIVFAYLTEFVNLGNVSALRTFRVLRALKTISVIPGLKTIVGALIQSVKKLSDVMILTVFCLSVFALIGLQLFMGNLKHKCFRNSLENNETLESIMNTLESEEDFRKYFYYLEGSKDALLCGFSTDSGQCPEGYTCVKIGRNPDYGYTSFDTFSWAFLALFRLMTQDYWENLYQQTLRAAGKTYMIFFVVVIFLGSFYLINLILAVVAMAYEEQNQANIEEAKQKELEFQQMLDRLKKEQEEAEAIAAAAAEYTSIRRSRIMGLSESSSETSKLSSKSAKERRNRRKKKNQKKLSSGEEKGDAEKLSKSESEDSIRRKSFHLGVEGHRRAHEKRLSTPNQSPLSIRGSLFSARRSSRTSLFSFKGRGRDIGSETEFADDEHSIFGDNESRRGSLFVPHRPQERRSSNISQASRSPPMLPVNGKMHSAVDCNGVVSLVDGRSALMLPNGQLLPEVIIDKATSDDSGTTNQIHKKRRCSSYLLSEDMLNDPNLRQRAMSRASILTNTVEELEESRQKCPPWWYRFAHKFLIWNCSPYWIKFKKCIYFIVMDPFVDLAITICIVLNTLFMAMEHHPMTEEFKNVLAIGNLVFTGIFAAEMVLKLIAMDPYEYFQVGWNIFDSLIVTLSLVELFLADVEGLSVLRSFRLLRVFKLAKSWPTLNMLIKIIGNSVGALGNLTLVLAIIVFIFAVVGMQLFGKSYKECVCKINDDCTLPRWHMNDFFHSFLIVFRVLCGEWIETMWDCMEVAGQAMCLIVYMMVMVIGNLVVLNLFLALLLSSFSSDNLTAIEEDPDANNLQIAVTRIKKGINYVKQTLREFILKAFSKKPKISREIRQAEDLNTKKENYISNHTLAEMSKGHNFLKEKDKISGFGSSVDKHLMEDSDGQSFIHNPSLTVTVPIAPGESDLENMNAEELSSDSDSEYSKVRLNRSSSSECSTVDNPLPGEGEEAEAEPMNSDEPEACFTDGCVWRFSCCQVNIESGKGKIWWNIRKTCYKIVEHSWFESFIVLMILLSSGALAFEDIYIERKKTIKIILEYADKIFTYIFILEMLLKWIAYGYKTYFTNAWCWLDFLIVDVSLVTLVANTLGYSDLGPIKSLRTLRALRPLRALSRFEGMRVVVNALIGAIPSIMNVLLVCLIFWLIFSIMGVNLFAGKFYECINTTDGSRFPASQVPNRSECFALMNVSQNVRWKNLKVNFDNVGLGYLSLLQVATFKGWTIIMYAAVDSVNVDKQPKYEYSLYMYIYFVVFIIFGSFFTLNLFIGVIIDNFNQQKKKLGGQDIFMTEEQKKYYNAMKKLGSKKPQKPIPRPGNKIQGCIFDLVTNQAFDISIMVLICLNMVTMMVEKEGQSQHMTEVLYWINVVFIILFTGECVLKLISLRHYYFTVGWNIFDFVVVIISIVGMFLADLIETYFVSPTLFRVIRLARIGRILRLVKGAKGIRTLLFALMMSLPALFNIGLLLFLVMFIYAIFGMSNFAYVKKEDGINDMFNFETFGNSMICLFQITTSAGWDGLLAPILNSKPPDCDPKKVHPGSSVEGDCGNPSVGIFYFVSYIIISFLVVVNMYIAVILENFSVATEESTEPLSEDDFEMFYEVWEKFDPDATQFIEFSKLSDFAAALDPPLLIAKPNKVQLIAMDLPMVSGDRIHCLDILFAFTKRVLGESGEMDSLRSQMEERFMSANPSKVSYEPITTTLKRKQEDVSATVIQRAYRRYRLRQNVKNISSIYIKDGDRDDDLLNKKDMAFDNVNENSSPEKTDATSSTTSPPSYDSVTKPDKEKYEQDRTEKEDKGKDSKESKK
- ASSAY_PROCEDURE: Whole-cell patch-clamp of sodium currents in hNav1.7-transfected HEK293T cells
- ASSAY_SETUP: holding potential −80 mV, cumulative 1 μM-1 mM; read-out: IC50, block of Nav1.7 current
QUANTITY_NAME: pIC50
Give only the number. pIC50 is defined as minus log10 of concentration in molar units.

Recorded pIC50 of CN(C)CCC=C1c2ccccc2CCc2ccccc21 [amitriptyline, Amitriptyline] , please.
5.37
